molecular target: UniProt:Q9UBN7; experiment: SAMDI mass spectrometry HDAC inhibition assay; assay type: biochemical; conditions: SAMDI; read-out: HDAC6 IC50
Sequence (Q9UBN7 whole entry): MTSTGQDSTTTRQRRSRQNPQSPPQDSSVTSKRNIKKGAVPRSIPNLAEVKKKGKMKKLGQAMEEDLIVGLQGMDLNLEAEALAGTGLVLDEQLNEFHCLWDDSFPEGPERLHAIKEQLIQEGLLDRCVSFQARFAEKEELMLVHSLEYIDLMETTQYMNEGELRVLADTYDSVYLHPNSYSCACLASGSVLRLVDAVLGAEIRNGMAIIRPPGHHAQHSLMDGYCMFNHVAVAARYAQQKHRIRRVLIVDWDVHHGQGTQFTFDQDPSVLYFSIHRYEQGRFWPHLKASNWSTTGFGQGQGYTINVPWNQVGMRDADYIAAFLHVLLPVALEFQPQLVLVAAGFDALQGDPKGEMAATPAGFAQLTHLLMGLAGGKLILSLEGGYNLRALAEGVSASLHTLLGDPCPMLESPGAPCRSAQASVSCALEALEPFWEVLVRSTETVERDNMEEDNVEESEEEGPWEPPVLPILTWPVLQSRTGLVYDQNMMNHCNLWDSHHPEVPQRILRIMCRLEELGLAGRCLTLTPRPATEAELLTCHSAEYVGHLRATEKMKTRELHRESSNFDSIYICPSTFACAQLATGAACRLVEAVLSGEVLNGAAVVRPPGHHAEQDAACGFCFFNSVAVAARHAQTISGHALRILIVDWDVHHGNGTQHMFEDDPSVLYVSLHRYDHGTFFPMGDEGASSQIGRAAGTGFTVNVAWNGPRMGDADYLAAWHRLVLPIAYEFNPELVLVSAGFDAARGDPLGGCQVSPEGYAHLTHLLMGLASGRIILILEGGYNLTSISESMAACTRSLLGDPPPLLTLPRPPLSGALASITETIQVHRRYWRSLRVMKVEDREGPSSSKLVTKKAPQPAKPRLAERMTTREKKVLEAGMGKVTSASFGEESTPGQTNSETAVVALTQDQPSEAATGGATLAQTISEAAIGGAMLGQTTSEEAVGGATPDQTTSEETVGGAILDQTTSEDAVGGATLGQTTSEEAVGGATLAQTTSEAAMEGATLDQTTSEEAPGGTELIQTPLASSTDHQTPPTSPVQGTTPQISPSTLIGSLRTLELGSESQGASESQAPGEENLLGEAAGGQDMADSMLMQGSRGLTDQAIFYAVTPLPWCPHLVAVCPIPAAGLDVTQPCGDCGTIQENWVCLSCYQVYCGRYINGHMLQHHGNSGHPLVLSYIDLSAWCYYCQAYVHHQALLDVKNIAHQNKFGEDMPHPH
Response field label: string, one of Condition met (IC50 strictly below 700 nM) or Condition not met.

Threshold test, IC50 < 700 nM: CN(C)c1ccc(-c2cn(CCCCCn3cccc(O)c3=S)nn2)cc1 [Compound 167f]
Condition not met

Below 700 nM on IC50? Entry Oc1cccn(CCCCCCCn2cc(-c3ccccc3)nn2)c1=S [Compound 162f]
Condition not met

Please check: IC50 for N#Cc1cccc(-c2cn(CCCCCn3cccc(O)c3=S)nn2)c1 [Compound 167e] , strictly under 700 nM or not?
Condition met

Is IC50 strictly under 700 nM for the entry CN(C)c1ccc(-n2cc(Cn3cccc(O)c3=S)nn2)cc1 [Compound 154b] ?
Condition not met

Answer whether the compound N#Cc1ccc(-c2cn(CCCCCn3cccc(O)c3=S)nn2)cc1 [Compound 167d] has IC50 strictly less than 700 nM
Condition not met

Given the entry CN(C)c1ccc(-c2ccc(Cn3cccc(O)c3=S)cc2)cn1 [Compound 149h] , would its reported IC50 be below 700 nM?
Condition not met

For Oc1cccn(CCCCCn2cc(-c3ccccc3)nn2)c1=S [Compound 162d] , is the recorded IC50 below the cut-off of 700 nM?
Condition not met

Bench note: check whether Oc1cccn(Cc2ccc(-c3ccccc3)cc2)c1=S [Compound 144c] shows IC50 below 700 nM
Condition not met

Take the compound Oc1cccn(Cc2ccccc2)c1=S [Compound 144b, 1-Benzyl-3-hydroxypyridine-2-thione] and say whether its IC50 is less than 700 nM.
Condition met

Lab note: IC50 threshold 700 nM. Does this compound come in strictly under it? N#Cc1ccc(-c2cn(CCCCCn3cccc(O)c3=S)nn2)cc1C(F)(F)F [Compound 167g]
Condition met

Answer whether the compound Cc1cccc(-c2ccc(Cn3cccc(O)c3=S)cc2)c1 [Compound 149e] has IC50 strictly less than 700 nM
Condition not met

Please check: IC50 for Cc1ccc(-c2ccc(Cn3cccc(O)c3=S)cc2)cc1 [Compound 149d] , strictly under 700 nM or not?
Condition met

Determine if N#Cc1ccccc1-c1ccc(Cn2cccc(O)c2=S)cc1 [Compound 149c] shows IC50 strictly lower than 700 nM.
Condition met

Consider Oc1cccn(Cc2ccc(-c3ccncc3)cc2)c1=S [Compound 149i] . Does its IC50 lie strictly below 700 nM?
Condition not met

Please state whether IC50 is below 700 nM for N#Cc1ccc(-c2ccc(Cn3cccc(O)c3=S)cc2)cc1 [Compound 149a]
Condition not met
